Reference for the values: the Deep4Chem optical property database

assay: photoluminescence quantum yield (fraction); solvent given as SMILES; settings: in Cc1ccccc1
MEASURED_PARAMETER: photoluminescence quantum yield
Please reply with the value in numeric form only.

Sample answers from the record:
| MOLECULE | photoluminescence quantum yield |
| --- | --- |
| Cc1cc(C)c(N(c2ccccc2)c2ccc(S(=O)(=O)c3ccc(S(=O)(=O)c4ccc(N(c5ccccc5)c5c(C)cc(C)cc5C)cc4)cc3)cc2)c(C)c1 | 0.79 |
| O=C1c2ccccc2C(=O)C1C1C(=O)c2c3ccccc3cc3cc4ccccc4c1c23 (centres undefined) | 0.356 |
| CN(C)c1ccc(/C=C/C=C/c2nc3ccccc3s2)cc1 | 0.0088 |
| COc1ccc(N2c3ccc4ccccc4c3-c3c4ccccc4cc[n+]3[B-]2(c2ccccc2)c2ccccc2)cc1 | 0.001 |
| F[B-]1(F)n2c(c3cccc4cccc2c43)=Nc2ccc3ccccc3[n+]21 | 0.99 |
| CSC1=C2C=C(c3cc4n(c3)[B-](F)(F)[N+]3=CC=CC3=C4c3c(C)cc(C)cc3C)C(C)=[N+]2[B-](F)(F)n2c(C)ccc21 | 0.57 |
| CCOC(=O)CN1C(=O)C2=C(c3ccc(C#N)cc3)N(CC(=O)OCC)C(=O)C2=C1c1ccc(C#N)cc1 | 0.29 |
| CCCCCCCCN1c2ccc(C#Cc3ccc(OC)cc3)cc2Sc2cc(C=O)ccc21 | 0.49 |

Consider the record given below.
Consider the molecule Fc1c(-n2c3ccccc3c3ccccc32)c(F)c(-n2c3ccccc3c3ccccc32)c(-c2nnc(-c3ccccc3)o2)c1-n1c2ccccc2c2ccccc21 and give its measured photoluminescence quantum yield.
0.06
